Where do the numbers come from? From patent US8952024B2.

Exercise: state measured Plant response rating, Morningglory for each of the compounds provided.
System: morningglory (Ipomoea spp.)
Assay: Test A pre-/postemergence plant response
Format: in vivo
Details: Postemergence, 500 g ai/ha; 0 to 100 scale, 0 = no effect, 100 = complete control; approx. ten days
Enter the number alone.

So what does the record say about Plant response rating, Morningglory for COc1cccc(-n2c(-c3ccccc3)ncc(C(=O)C3=C(O)CCCC3=O)c2=O)c1 [Compound 19] ?
60

Query: Plant response rating, Morningglory; subject: O=C1CCCC(O)=C1C(=O)c1cnc(-c2cccc(Br)c2)n(-c2ccccc2)c1=O [Compound 69]
100

Which Plant response rating, Morningglory is listed for Cc1cccc(C)c1-n1c(-c2ccccc2)ncc(C(=O)C2=C(O)CCCC2=O)c1=O [Compound 31] ?
70
